molecular target: GDP-bound KRAS protein (aa 1-169), containing both G12D and C118A amino acid substitutions (Homo sapiens, UniProt P01116, C118A/G12D); experiment: KRAS G12D Coupled Nucleotide Exchange Assay; assay type: biochemical; conditions: 2 h compound pre-incubation; SOS-mediated nucleotide exchange, cRAF AlphaScreen readout
Sequence (P01116 1-169 isoform P01116-2 G12D/C118A): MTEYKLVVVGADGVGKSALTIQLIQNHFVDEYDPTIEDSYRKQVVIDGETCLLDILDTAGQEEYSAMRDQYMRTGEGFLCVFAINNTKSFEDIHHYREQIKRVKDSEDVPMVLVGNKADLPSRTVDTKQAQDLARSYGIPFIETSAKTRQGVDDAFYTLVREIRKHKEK
assayEndpoint: Avg 2 h Coupled Exchange IC50 (nM)

Recorded results for 3 compounds are shown here.
[[record]]
compound = "CN1CC[C@@H]1COc1nc(N2CCNCC2)c2cc(Cl)c(-c3cccc4sc(N)nc34)c(F)c2n1"
numericvalue = 176

[[record]]
compound = "C[C@@H](CN(C)C)Oc1nc(N2CCNCC2)c2cc(Cl)c(-c3cccc4sc(N)nc34)c(F)c2n1"
numericvalue = 26

[[record]]
compound = "CN1CCC[C@H]1COc1nc(N2CCNC[C@@H]2CO)c2cc(Cl)c(-c3cccc4sc(N)nc34)c(F)c2n1"
numericvalue = 388


A: CC1(C)CN(C2CN(c3nc(N4CCNCC4)c4cc(Cl)c(-c5cccc6sc(N)nc56)c(F)c4n3)C2)CCO1
B: CN1CCC[C@H]1COc1nc(N2CCNC[C@@H]2CCO)c2cc(Cl)c(-c3cccc4sc(N)nc34)c(F)c2n1
Which of these two has the smaller recorded Avg 2 h Coupled Exchange IC50: A or B ? Refer to your chosen item by its label in the answer.
B
(B: 2250 nM, A: 3320 nM)

a: CON(C)C1CN(c2nc(N3CCNCC3)c3cc(Cl)c(-c4cccc5sc(N)nc45)c(F)c3n2)C1
b: CN1CCC[C@H]1COc1nc(N2CCCNC(=O)C2)c2cc(Cl)c(-c3cccc4sc(N)nc34)c(F)c2n1
c: Nc1nc2c(-c3c(Cl)cc4c(N5CCNCC5)nc(N5CCCC(c6nccs6)C5)nc4c3F)cccc2s1 (stereo not drawn)
d: CCN1CCC(COc2nc(N3CCNCC3)c3cc(Cl)c(-c4cccc5sc(N)nc45)c(F)c3n2)CC1
Order the 4 compounds from highest to lowest Avg 2 h Coupled Exchange IC50. Put the labels in the requested order and list them out.
c, a, d, b
(c: 3950 nM, a: 1730 nM, d: 429 nM, b: 114 nM)

A: Nc1nc2c(-c3c(Cl)cc4c(N5CCNCC5)nc(OC[C@@H]5C[C@H](F)CN5)nc4c3F)cccc2s1
B: CN1CCC[C@H]1CNc1nc(N2CCNCC2)c2cc(Cl)c(-c3cccc4sc(N)nc34)c(F)c2n1
C: CN(C)[C@@H]1CCN(c2nc(N3CCNCC3)c3cc(Cl)c(-c4cccc5sc(N)nc45)c(F)c3n2)C1
# rank by Avg 2 h Coupled Exchange IC50, ascending (min first) Put the labels in the requested order and list them out.
A, C, B

* * *

target: GDP-bound KRAS protein (aa 1-169), containing both G12D and C118A amino acid substitutions (Homo sapiens, UniProt P01116, C118A/G12D); experiment: KRAS G12D Coupled Nucleotide Exchange Assay; format: biochemical; conditions: 2 h compound pre-incubation; SOS-mediated nucleotide exchange, cRAF AlphaScreen readout
assayEndpoint: Avg 2 h Coupled Exchange IC50 (µM)

[[record]]
molecule = "Nc1nc2c(-c3c(Cl)cc4c(N5CC6CCC(C5)NC6)nc(OC[C@@]56CCCN5C[C@H](F)C6)nc4c3F)ccc(F)c2s1 (some centres unmarked)"
numericvalue = 0.005


P: CN1CCCCC1CCOc1nc(N2CCNCC2)c2cc(Cl)c(-c3cccc4sc(N)nc34)c(F)c2n1 (centres unmarked)
Q: CNC1CCN(c2nc(N3CCNCC3)c3cc(Cl)c(-c4cccc5sc(N)nc45)c(F)c3n2)C1 (centres unmarked)
R: CCOC(=O)c1ccn(C2CN(c3nc(N4CCNCC4)c4cc(Cl)c(-c5cccc6sc(N)nc56)c(F)c4n3)C2)n1
S: Nc1nc2c(-c3c(Cl)cc4c(N5CCNCC5)nc(OC[C@]56CCCN5[C@@H](CO)CC6)nc4c3F)cccc2s1
Order the 4 molecules from highest to lowest Avg 2 h Coupled Exchange IC50. Put the labels in the requested order and list them out.
R, Q, P, S
(R: 3.67 µM, Q: 1.27 µM, P: 0.343 µM, S: 0.042 µM)

A: CN(C1CN(c2nc(N3CCNCC3)c3cc(Cl)c(-c4cccc5sc(N)nc45)c(F)c3n2)C1)[C@@H]1CCOC1
B: C[C@@H]1[C@@H](N)CN1c1nc(N2CCNCC2)c2cc(Cl)c(-c3cccc4sc(N)nc34)c(F)c2n1
Which of these two has the smaller recorded Avg 2 h Coupled Exchange IC50: A or B ? Refer to your chosen item by its label in the answer.
B
(B: 0.377 µM, A: 0.895 µM)

* * *

target: His-tagged KRAS G12D protein (Homo sapiens, UniProt P01116, G12D); test: KRAS G12D TR-FRET Assay; conditions: biotinylated KRPep-2d substrate, 10 μM GDP;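 also: europium anti-His antibody paired with streptavidin-d2 as FRET partners, initial 30 min incubation, then peptide 1 h and detection reagents 1 h, all at room temperature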
Sequence (P01116 1-188 isoform P01116-2 G12D): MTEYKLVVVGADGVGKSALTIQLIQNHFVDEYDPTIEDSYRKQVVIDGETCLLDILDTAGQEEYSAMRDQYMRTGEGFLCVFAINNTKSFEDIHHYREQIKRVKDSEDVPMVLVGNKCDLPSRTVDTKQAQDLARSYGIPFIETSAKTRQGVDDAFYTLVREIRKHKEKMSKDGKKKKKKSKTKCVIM
pIC50: −log10 of the molar value.
assayEndpoint: pIC50

Recorded results for 3 molecules are shown here.
[[record]]
molecule = "Nc1nc2c(-c3c(Cl)cc4c(N5CCNCC5)nc(OCC56CCCN5CCC6)nc4c3F)ccc(F)c2s1"
numericvalue = 8.05

[[record]]
molecule = "CN1CCCC[C@H]1COc1nc(N2CCNCC2)c2cc(Cl)c(-c3cccc4sc(N)nc34)c(F)c2n1"
numericvalue = 5.92

[[record]]
molecule = "Nc1nc2c(-c3c(F)cc4c(N5C[C@@H]6CC[C@H]5CN6)nc(OC[C@@]56CCCN5C[C@H](F)C6)nc4c3F)ccc(F)c2s1"
numericvalue = 8.00


a: Nc1nc2c(-c3c(Cl)cc4c(N5CCNCC5)nc(OCC56CCCN5C(=O)CC6)nc4c3F)cccc2s1 (stereo not shown)
b: Nc1nc2c(-c3c(Cl)cc4c(N5CCNCC5)nc(OC[C@@H]5CCCN5CC(F)F)nc4c3F)cccc2s1
Which of these two has the smaller recorded pIC50: a or b ? Refer to your chosen item by its label in the answer.
a
(a: 5.50, b: 5.79)

* * *

molecular target: GDP-bound KRAS protein (aa 1-169), containing both G12D and C118A amino acid substitutions (Homo sapiens, UniProt P01116, C118A/G12D); assay: KRAS G12D Coupled Nucleotide Exchange Assay; assay type: biochemical; settings: 2 h compound pre-incubation; SOS-mediated nucleotide exchange, cRAF AlphaScreen readout
assayEndpoint: Avg 2 h Coupled Exchange IC50 (nM)

Recorded results for 2 molecules are shown here.
[[record]]
molecule = "Cc1cc(-c2c(Cl)cc3c(N4CCNCC4)nc(OC[C@@H]4CCCN4C)nc3c2F)c2nc(N)sc2c1 [Example 129]"
measurementunits = "nM"
numericvalue = 1090

[[record]]
molecule = "CN1CCC[C@H]1COc1nc(N2CC3CC(C2)N3)c2cc(Cl)c(-c3cccc4sc(N)nc34)c(F)c2n1 [Example 5]"
measurementunits = "nM"
numericvalue = 5


I: Nc1nc2c(-c3c(F)cc4c(N5[C@@H]6CC[C@H]5CNC6)nc(OC[C@@]56CCCN5C[C@H](F)C6)nc4c3F)ccc(F)c2s1 [Example 142]
II: Nc1nc2c(-c3c(Cl)cc4c(N5CCNCC5)nc(N5C[C@@H]6NCC[C@H]65)nc4c3F)cccc2s1 [Example 93]
III: Nc1nc2c(-c3c(Cl)cc4c(N5CCNCC5)nc(N5CC6(CCNC6)C5)nc4c3F)cccc2s1 [Example 120]
# rank by Avg 2 h Coupled Exchange IC50, ascending (min first) Put the labels in the requested order and list them out.
I, II, III

* * *

target: GDP-bound KRAS protein (aa 1-169), containing both G12D and C118A amino acid substitutions (Homo sapiens, UniProt P01116, C118A/G12D); assay: KRAS G12D Coupled Nucleotide Exchange Assay; format: biochemical; conditions: 2 h compound pre-incubation; SOS-mediated nucleotide exchange, cRAF AlphaScreen readout;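 also: IC50 obtained by fitting the AlphaScreen signal with a four-parameter logistic curve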
assayEndpoint: Avg 2 h Coupled Exchange IC50 (nM)

Recorded results for 10 molecules are shown here.
[[record]]
molecule = "Nc1nc2c(-c3c(Cl)cc4c(N5CCNCC5)nc(N5CC6(C5)NCC6(F)F)nc4c3F)cccc2s1"
numericvalue = 3370

[[record]]
molecule = "CN1CCC[C@H]1COc1nc(N2C3CNCC2COC3)c2cc(Cl)c(-c3cccc4sc(N)nc34)c(F)c2n1"
numericvalue = 10

[[record]]
molecule = "Nc1nc2c(-c3c(Cl)cc4c(N5C[C@H]6CC[C@@H](C5)N6)nc(OC[C@]56CCCN5C[C@H](F)C6)nc4c3F)ccc(F)c2s1"
numericvalue = 1

[[record]]
molecule = "Nc1nc2c(-c3c(Cl)cc4c(N5CCNCC5)nc(OCC56CCCN5CCC6)nc4c3F)ccc(F)c2s1"
numericvalue = 7

[[record]]
molecule = "Nc1nc2c(-c3c(Cl)cc4c(N5CCNCC5)nc(N5CCN6CCC5C6)nc4c3F)cccc2s1 (stereo not shown)"
numericvalue = 1900

[[record]]
molecule = "CN1C[C@H](F)C[C@H]1COc1nc(N2CCNCC2)c2cc(Cl)c(-c3cccc4sc(N)nc34)c(F)c2n1"
numericvalue = 38

[[record]]
molecule = "Nc1nc2c(-c3c(Cl)cc4c(N5CCNCC5)nc(OCC56CCCN5CC(F)(F)C6)nc4c3F)cccc2s1 (stereo not shown)"
numericvalue = 79

[[record]]
molecule = "CN1C[C@H](F)C[C@H]1COc1nc(N2[C@@H]3CNC[C@H]2COC3)c2cc(Cl)c(-c3ccc(F)c4sc(N)nc34)c(F)c2n1"
numericvalue = 9

[[record]]
molecule = "Nc1nc2c(-c3c(Cl)cc4c(N5CCNCC5)nc(N5CC6(CCCN6)C5)nc4c3F)cccc2s1"
numericvalue = 567

[[record]]
molecule = "Nc1nc2c(-c3c(Cl)cc4c(N5[C@@H]6CC[C@H]5CNC6)nc(OC[C@]56CCCN5C[C@H](F)C6)nc4c3F)ccc(F)c2s1"
numericvalue = 6


P: CCN1CCC(Oc2nc(N3CCNCC3)c3cc(Cl)c(-c4cccc5sc(N)nc45)c(F)c3n2)CC1
Q: Nc1nc2c(-c3c(Cl)cc4c(N5CCNCC5)nc(OC[C@@]56CCCN5[C@@H](CO)CC6)nc4c3F)cccc2s1
R: Nc1nc2c(-c3c(Cl)cc4c(N5CCNCC5)nc(N5CC(n6ccnc6)C5)nc4c3F)cccc2s1
Order the 3 molecules from highest to lowest Avg 2 h Coupled Exchange IC50. Put the labels in the requested order and list them out.
R, P, Q
(R: 3110 nM, P: 411 nM, Q: 42 nM)

1: Nc1nc2c(-c3c(Cl)cc4c(N5CCNCC5)nc(N5CC(N6CCS(=O)(=O)CC6)C5)nc4c3F)cccc2s1
2: COC1CCN(C2CN(c3nc(N4CCNCC4)c4cc(Cl)c(-c5cccc6sc(N)nc56)c(F)c4n3)C2)CC1
3: CN1CCC[C@H]1COc1nc(N2CCNCC2)c2cc(F)c(-c3cccc4sc(N)nc34)c(F)c2n1
4: C[C@H]1CNCCN1c1nc(OC[C@@H]2CCCN2C)nc2c(F)c(-c3cccc4sc(N)nc34)c(Cl)cc12
# rank by Avg 2 h Coupled Exchange IC50, ascending (min first) Put the labels in the requested order and list them out.
4, 3, 2, 1
(4: 23 nM, 3: 391 nM, 2: 706 nM, 1: 2300 nM)
